Target: hLBAT (Homo sapiens)
Construct: kept under Geneticin selection
Sequence (Q14973 1-349): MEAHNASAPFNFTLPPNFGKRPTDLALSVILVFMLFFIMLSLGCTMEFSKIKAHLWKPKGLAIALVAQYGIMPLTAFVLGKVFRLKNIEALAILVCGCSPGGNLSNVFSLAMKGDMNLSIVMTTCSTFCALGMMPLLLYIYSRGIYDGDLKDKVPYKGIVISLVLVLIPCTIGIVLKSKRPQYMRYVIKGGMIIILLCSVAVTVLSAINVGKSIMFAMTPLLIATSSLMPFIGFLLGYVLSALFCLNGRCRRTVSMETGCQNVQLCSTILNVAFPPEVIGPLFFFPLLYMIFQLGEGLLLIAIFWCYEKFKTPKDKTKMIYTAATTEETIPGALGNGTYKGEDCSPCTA
Experiment: LBAT (h/m) assay: 3H-taurocholic acid uptake in human LBAT-overexpressing cells
Settings: 0.3 μM 3H-taurocholic acid + 7.5 μM cold taurocholic acid, 20 minutes at 37° C.
measured-metric: IC50

Lab note: measured IC50 of CCCCC1(CCCC)CN(c2ccccc2)c2cc(SC)c(CSCC(=O)O)cc2S(=O)(=O)N1C was > 3.33 µM

Note to self: IC50 recorded for CCCCC1(CC)CN(c2ccccc2)c2cc(OC)c(CSCC(=O)O)cc2S(=O)(=O)N1 (racemic) [Example 44] was > 1 µM

Entry under test: CCCCC1(C)CN(c2ccccc2)c2cc(N(C)C)c(CSCC(=O)O)cc2S(=O)(=O)N1 (stereo not drawn) . Its IC50 was > 1 µM

---

Biological target: hLBAT (Homo sapiens, UniProt Q14973)
Construct: kept under Geneticin selection
Sequence (Q14973 1-349): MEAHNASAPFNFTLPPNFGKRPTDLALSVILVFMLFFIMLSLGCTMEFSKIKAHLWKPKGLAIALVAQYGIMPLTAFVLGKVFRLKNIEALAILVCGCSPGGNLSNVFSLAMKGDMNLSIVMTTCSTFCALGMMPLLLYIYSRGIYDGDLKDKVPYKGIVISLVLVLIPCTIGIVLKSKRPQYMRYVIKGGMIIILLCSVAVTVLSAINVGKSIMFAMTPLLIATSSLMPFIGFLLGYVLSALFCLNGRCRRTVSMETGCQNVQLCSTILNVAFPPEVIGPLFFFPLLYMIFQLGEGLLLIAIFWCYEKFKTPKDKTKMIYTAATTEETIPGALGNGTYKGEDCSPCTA
Assay: LBAT (h/m) assay: 3H-taurocholic acid uptake in human LBAT-overexpressing cells
Conditions: 0.3 μM 3H-taurocholic acid + 7.5 μM cold taurocholic acid, 20 minutes at 37° C.
pIC50: −log10 of the molar value.
measured-metric: pIC50

CCCCC1(CC)CN(c2ccc(F)cc2)c2cc(SC)c(CSC(C)(C)C(=O)O)cc2S(=O)(=O)C1 (racemic) [Example 15]	6.75
CCCCC1(CC)CN(c2ccccc2)c2cc(OC)c(CSC(C)(C)C(=O)O)cc2S(=O)(=O)C1 (single isomer, unassigned) [26, enantiomer 1]	6.98
CCCCC1(CC)CN(c2ccccc2)c2cc(OC)c(CSC(C)(C)C(=O)O)cc2S(=O)(=O)C1 (single isomer, unassigned) [26, enantiomer 2]	6.61

P = CCCCC1CN(c2ccccc2)c2cc(OC)c(CSCC(=O)O)cc2S(=O)(=O)N1C (racemic) [Example 35]
Q = CCCCC1(CC)CN(c2ccccc2)c2cc(SC)c(CSCC(=O)O)cc2S(=O)(=O)N1C (single isomer, unassigned) [21, enantiomer 1]
Task: Lab note: check whether P or Q shows the higher recorded pIC50. Selection: enter the item's label.
Output: P
